- target: human hexosaminidase A (Homo sapiens, UniProt P06865+P07686)
- Sequence (P06865 89-529): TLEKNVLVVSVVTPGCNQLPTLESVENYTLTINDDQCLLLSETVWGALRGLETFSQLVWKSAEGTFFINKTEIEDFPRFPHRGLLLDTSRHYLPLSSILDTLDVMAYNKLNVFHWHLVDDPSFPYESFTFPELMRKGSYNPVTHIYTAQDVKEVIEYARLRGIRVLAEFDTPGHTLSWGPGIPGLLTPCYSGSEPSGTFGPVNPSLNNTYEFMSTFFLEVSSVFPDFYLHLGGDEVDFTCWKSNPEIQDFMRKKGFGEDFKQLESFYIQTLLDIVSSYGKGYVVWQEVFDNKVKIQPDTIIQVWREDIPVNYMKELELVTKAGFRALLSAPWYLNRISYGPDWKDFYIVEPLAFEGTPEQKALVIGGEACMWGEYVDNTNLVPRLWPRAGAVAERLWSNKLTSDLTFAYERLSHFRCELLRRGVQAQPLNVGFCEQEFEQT
- Sequence (P06865 23-74 partner limits assumed): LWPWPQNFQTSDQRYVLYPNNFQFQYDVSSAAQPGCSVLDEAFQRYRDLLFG
- Sequence (P07686 315-556 limits assumed): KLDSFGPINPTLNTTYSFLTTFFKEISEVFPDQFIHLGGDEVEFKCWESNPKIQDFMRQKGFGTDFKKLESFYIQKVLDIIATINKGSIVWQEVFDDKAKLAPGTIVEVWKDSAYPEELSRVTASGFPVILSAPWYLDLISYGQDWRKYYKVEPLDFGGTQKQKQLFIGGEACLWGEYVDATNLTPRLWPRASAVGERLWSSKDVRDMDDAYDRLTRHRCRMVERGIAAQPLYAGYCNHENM
- Sequence (P07686 122-311 limits assumed): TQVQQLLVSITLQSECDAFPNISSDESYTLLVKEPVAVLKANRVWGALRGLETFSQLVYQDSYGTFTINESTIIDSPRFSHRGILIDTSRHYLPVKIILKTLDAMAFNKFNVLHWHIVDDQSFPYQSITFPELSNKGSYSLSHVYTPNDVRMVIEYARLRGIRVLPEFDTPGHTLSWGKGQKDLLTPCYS
- Sequence (P07686 50-107 partner limits assumed): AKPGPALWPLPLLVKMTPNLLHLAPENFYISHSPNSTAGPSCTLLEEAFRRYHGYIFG
- procedure-details: Ki on human hexosaminidase A
- reported-conditions: read-out: Ki Hex A
reported-metric: pKi
# log scale: pKi equals minus log10 of the concentration in mol/L

Q: State its pKi for this compound: CC(=O)NC1NCCC(O)C1O (stereo not shown)
Ans: 4.05

// provenance: patent US20070066543A1
